AC50 reference
Test system: S. cerevisiae Burl-1 ts mutant growth, BacTiter-Glo, 38.5C 24 h
Assay: restored growth of temperature-sensitive Burl-1 yeast – whole organism, S. cerevisiae, Burl-1 ts mutant, luminescence, counter-screen for SUMOylation pathway inhibitor project, dose response (AID 463199)
Calls of active or inactive are those of the source.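 Rule for the calls: active = AC50, the dose giving half-maximal effect, exceeds a fixed cutoff for a compound that rescues yeast growth under heat; inactive = the rest, inconclusive results apart.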

Query: Bench note: what AC50 did "C/C(=N\NC(=O)c1ccc(Cl)cc1)c1cccnc1" show?
Response: > 42 µM (inactive)

Query: Bench note: what AC50 did COc1cccc(C2CC(c3cccc(NS(C)(=O)=O)c3)=NN2C(=O)c2ccccc2)c1OC (configuration not stated) show?
Response: > 42 µM (inactive)

Query: Bench note: what AC50 did N#CC1=C(N)Oc2c(ccc3ccccc23)C1c1cccs1 (configuration not stated) show?
Response: > 42 µM (inactive)

----------
Test system: S. cerevisiae Burl-1 ts mutant growth, BacTiter-Glo, 38.5C 24 h
Experiment: restored growth of temperature-sensitive Burl-1 yeast – whole organism, S. cerevisiae, Burl-1 ts mutant, luminescence, counter-screen for SUMOylation pathway inhibitor project, dose response (AID 463199)
Calls of active or inactive are those of the source.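 Rule for the calls: active = AC50, the dose giving half-maximal effect, exceeds a fixed cutoff for a compound that rescues yeast growth under heat; inactive = the rest, inconclusive results apart.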
# valid calls are YES for active, NO for inactive; nothing else

Past entries and their recorded results:
Molecule: Nc1nc2ccccc2cc1-c1cccs1
Category: NO
--
Molecule: O=C(CSc1nc(-c2ccccc2)cc(=O)[nH]1)Nc1ccc(Br)cc1
Category: NO
--
Molecule: CC1=CC2=NC(=O)/C(=C\c3cc(C)n(-c4ccccc4)c3C)C(=N)N2O1
Category: NO

Query: Returns: the outcome recorded for "N/C(=N\NC(=O)c1sccc1OCc1ccc(Cl)cc1Cl)c1ccccn1" in this assay.
Response: NO

----------
AC50 reference
System: S. cerevisiae Burl-1 ts mutant growth, BacTiter-Glo, 38.5C 24 h
Experiment: restored growth of temperature-sensitive Burl-1 yeast – whole organism, S. cerevisiae, Burl-1 ts mutant, luminescence, counter-screen for SUMOylation pathway inhibitor project, dose response (AID 463199)
Activity calls are given as the source filed them.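 How the source made its calls: active means AC50, the dose giving half-maximal effect, exceeds a fixed cutoff for a compound that rescues yeast growth under heat; inactive means the rest, inconclusive results apart.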

Example cases with answers are listed next.
Compound: Cc1cc([N+](=O)[O-])nn1CC(=O)NNC(=S)Nc1ccc([N+](=O)[O-])cc1
Assay Metric: AC50
Result: > 21 µM (inactive)
//
Compound: COc1ccccc1NC(=O)c1ccc(-n2ccnc2)c([N+](=O)[O-])c1
Assay Metric: AC50
Result: > 42 µM (inactive)
//
Compound: CCOc1ccccc1CN1CCNC(=O)C1CC(=O)NCCN1CCOC1=O (stereo not given)
Assay Metric: AC50
Result: > 42 µM (inactive)
//
Compound: CC(C)NC(=O)CCCc1cn(C)c2ccccc12
Assay Metric: AC50
Result: > 42 µM (inactive)
//
Compound: C/C(CC(=O)NC1CCCCC1)=N\NC(=O)Cc1ccc(-c2ccccc2)cc1
Assay Metric: AC50
Result: > 42 µM (inactive)

Query: Bench note: what AC50 did "CCn1c(SCC(=O)Nc2ccc(NC(=O)c3ccco3)cc2)nnc1-c1cccs1" show?
Response: > 42 µM (inactive)

----------
Test system: S. cerevisiae Burl-1 ts mutant growth, BacTiter-Glo, 38.5C 24 h
Test: restored growth of temperature-sensitive Burl-1 yeast – whole organism, S. cerevisiae, Burl-1 ts mutant, luminescence, counter-screen for SUMOylation pathway inhibitor project, dose response (AID 463199)
Activity calls are given as the source filed them.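 How the source made its calls: active means AC50, the dose giving half-maximal effect, exceeds a fixed cutoff for a compound that rescues yeast growth under heat; inactive means the rest, inconclusive results apart.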
# valid calls are active, inactive; nothing else

Molecule: COc1ccc(NC(=O)Nc2ccc(OC)cc2)cc1
System Tested: S. cerevisiae Burl-1 ts mutant growth, BacTiter-Glo, 38.5C 24 h
Category: inactive
//
Molecule: O=C(CCC(=O)Nc1ccc(F)cc1)N/N=C/c1cccs1
System Tested: S. cerevisiae Burl-1 ts mutant growth, BacTiter-Glo, 38.5C 24 h
Category: inactive
//
Molecule: O=C(N/C(=C/c1ccc2c(c1)OCO2)C(=O)N1CCOCC1)c1cccs1
System Tested: S. cerevisiae Burl-1 ts mutant growth, BacTiter-Glo, 38.5C 24 h
Category: inactive
//
Molecule: CC(C)(C)NC(=O)CC1C(=O)NCCN1Cc1c(F)cccc1Cl (configuration not stated)
System Tested: S. cerevisiae Burl-1 ts mutant growth, BacTiter-Glo, 38.5C 24 h
Category: active
//
Molecule: CC(NC(=O)OCc1ccccc1)C(=O)N1CC(O)CC1C(=O)O (configuration not stated)
System Tested: S. cerevisiae Burl-1 ts mutant growth, BacTiter-Glo, 38.5C 24 h
Category: inactive
//
Molecule: O=C1N=C(N2CCN(c3ccccc3)CC2)SC1Cc1ccccc1 (configuration not stated)
System Tested: S. cerevisiae Burl-1 ts mutant growth, BacTiter-Glo, 38.5C 24 h
Category: inactive
//
Molecule: COc1ccc(S(=O)(=O)Cc2ccc(C(=O)NCc3cccs3)o2)cc1
System Tested: S. cerevisiae Burl-1 ts mutant growth, BacTiter-Glo, 38.5C 24 h
Category: inactive
//
Molecule: O=C(c1cc2c(ccc3ccccc32)oc1=O)N1CCCC1
System Tested: S. cerevisiae Burl-1 ts mutant growth, BacTiter-Glo, 38.5C 24 h
Category: inactive

Query: Returns: the outcome recorded for "Cc1cc(C)n(-c2nc(-c3cccc(Cl)c3)cs2)n1" in this assay.
Response: inactive

Query: Returns: the outcome recorded for "N#C/C(=C/c1ccc(N2CCCCC2)o1)C(=O)Nc1ccc(Cl)cc1" in this assay.
Response: inactive

Query: Returns: the outcome recorded for "c1ccc2cc(C3CCCCC3)ncc2c1" in this assay.
Response: inactive

Query: Returns: the outcome recorded for "COc1ccc(NC(=O)CN(C)C(=O)c2cc(C)on2)cc1" in this assay.
Response: inactive

Query: Returns: the outcome recorded for O=C(CCC(F)(F)F)N1CCCC(CO)(CCc2ccccc2)C1 (configuration not stated) in this assay.
Response: inactive

Query: Returns: the outcome recorded for Cc1ccc(S(=O)(=O)CCC(=O)OCC(=O)N(C)C2CCS(=O)(=O)C2)cc1 (configuration not stated) in this assay.
Response: inactive

----------
System: S. cerevisiae Burl-1 ts mutant growth, BacTiter-Glo, 38.5C 24 h
Assay: restored growth of temperature-sensitive Burl-1 yeast – whole organism, S. cerevisiae, Burl-1 ts mutant, luminescence, counter-screen for SUMOylation pathway inhibitor project, dose response (AID 463199)
Active and inactive are the calls of the source.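 Rule for the calls: active = AC50, the dose giving half-maximal effect, exceeds a fixed cutoff for a compound that rescues yeast growth under heat; inactive = the rest, inconclusive results apart.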
# valid calls are label 1 for active, label 0 for inactive; nothing else

Past entries and their recorded results:
Compound: Cc1cnc(NC(=O)CSc2nc3ccccc3s2)s1
System Tested: S. cerevisiae Burl-1 ts mutant growth, BacTiter-Glo, 38.5C 24 h
Category: label 0
//
Compound: C=CC(=O)NC1CC2CCC1(C)C2(C)C (stereo not drawn)
System Tested: S. cerevisiae Burl-1 ts mutant growth, BacTiter-Glo, 38.5C 24 h
Category: label 0
//
Compound: COc1ccccc1C1NC(=O)CS1 (stereo not drawn)
System Tested: S. cerevisiae Burl-1 ts mutant growth, BacTiter-Glo, 38.5C 24 h
Category: label 0
//
Compound: O=C1c2cccc3c(N4CCCCC4)ccc(c23)C(=O)N1CCO
System Tested: S. cerevisiae Burl-1 ts mutant growth, BacTiter-Glo, 38.5C 24 h
Category: label 0
//
Compound: CCCCn1c(=O)[nH]c(=O)c2c1nc(COc1ccc(C#N)cc1)n2CCC
System Tested: S. cerevisiae Burl-1 ts mutant growth, BacTiter-Glo, 38.5C 24 h
Category: label 0
//
Compound: COCC(=O)NNC(=O)c1ccccc1OC
System Tested: S. cerevisiae Burl-1 ts mutant growth, BacTiter-Glo, 38.5C 24 h
Category: label 0
//
Compound: CC1(C)CC(=O)C(CC2CCCCC2=O)C(=O)C1 (stereo not drawn)
System Tested: S. cerevisiae Burl-1 ts mutant growth, BacTiter-Glo, 38.5C 24 h
Category: label 0
//
Compound: O=Cc1ccc(Oc2cccc(C(F)(F)F)c2)nc1
System Tested: S. cerevisiae Burl-1 ts mutant growth, BacTiter-Glo, 38.5C 24 h
Category: label 0

Query: Returns: the outcome recorded for "Cc1ccc(S(=O)(=O)NCCS(=O)(=O)N2CCN(c3ccc(F)cc3)CC2)cc1" in this assay.
Response: label 0

Query: Returns: the outcome recorded for "COc1cccc(OC)c1C(=O)Nc1ccc2c(c1)N(S(=O)(=O)c1cccs1)CCC2" in this assay.
Response: label 0

Query: Returns: the outcome recorded for "CC(=O)c1ccc(Oc2cc(C)nc(N3CCOCC3)n2)cc1" in this assay.
Response: label 0

Query: Returns: the outcome recorded for "Cc1csc(=O)n1CC(=O)OCC(=O)Nc1cc([N+](=O)[O-])ccc1Cl" in this assay.
Response: label 0

Query: Returns: the outcome recorded for "Cc1ccc(/C=C2\SC(N3CCCC3)=NC2=O)cc1" in this assay.
Response: label 0

Query: Returns: the outcome recorded for "Cc1c(C(=O)N2CCCC2)c(S(=O)(=O)Nc2cccc(Br)c2)c(C)n1C" in this assay.
Response: label 0

----------
System: S. cerevisiae Burl-1 ts mutant growth, BacTiter-Glo, 38.5C 24 h
Assay: restored growth of temperature-sensitive Burl-1 yeast – whole organism, S. cerevisiae, Burl-1 ts mutant, luminescence, counter-screen for SUMOylation pathway inhibitor project, dose response (AID 463199)
Calls of active or inactive are those of the source.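 The calls were made as follows: active = AC50, the dose giving half-maximal effect, exceeds a fixed cutoff for a compound that rescues yeast growth under heat; inactive = the rest, inconclusive results apart.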
# valid calls are active, inactive; nothing else

Molecule: Cc1ccccc1-c1nnc(SCc2ccc(F)cc2)o1
Category: inactive
--
Molecule: Cc1cc(-c2ccc(C(C)C)c(S(=O)(=O)N3CC(=O)Nc4ccccc43)c2)on1
Category: inactive
--
Molecule: CCN(CC)C(=O)Cn1c(=O)n(CCCC(=O)NCc2ccccc2)c(=O)c2sccc21
Category: inactive
--
Molecule: Cc1ccc(C)c(NC(NC(=O)c2ccccn2)C(Cl)(Cl)Cl)c1 (stereo not given)
Category: inactive
--
Molecule: COc1ccc(-c2nc(NC(=O)CCNC(=O)c3ccco3)sc2C)cc1
Category: inactive
--
Molecule: CC(NC(=O)CCc1nnc(-c2ccc(-c3ccccc3)cc2)o1)c1nc2ccccc2[nH]1 (stereo not given)
Category: inactive

Query: Returns: the outcome recorded for "CCN(C(=O)Nc1ccccc1OC)c1c(N)n(Cc2ccccc2)c(=O)[nH]c1=O" in this assay.
Response: inactive

Query: Returns: the outcome recorded for "NS(=O)(=O)c1cccc(NC(=O)CSc2nnnn2-c2ccccc2)c1" in this assay.
Response: inactive

Query: Returns: the outcome recorded for "O=C(Nc1ccc(F)cc1)c1cccnn1" in this assay.
Response: inactive

Query: Returns: the outcome recorded for "CCOc1ncccc1-c1nc(-c2cccs2)no1" in this assay.
Response: inactive

Query: Returns: the outcome recorded for "O=C(O)c1cn(Cc2ccccn2)c(=O)c2ccccc12" in this assay.
Response: inactive

Query: Returns: the outcome recorded for "Oc1ccccc1-c1cc(C(F)(F)C(F)F)[nH]n1" in this assay.
Response: inactive

Query: Returns: the outcome recorded for "Oc1c(Br)cc(Cl)cc1C=Nc1ccccc1Br" in this assay.
Response: inactive

Query: Returns: the outcome recorded for "COc1cc(SC)ccc1C(=O)N1CCCCCC1" in this assay.
Response: inactive

Query: Returns: the outcome recorded for "CCn1nccc1C(=O)Nc1nccs1" in this assay.
Response: inactive

Query: Returns: the outcome recorded for "O=C(COC(=O)CSc1ccc([N+](=O)[O-])cc1)NC1CCCCCCC1" in this assay.
Response: inactive

Query: Returns: the outcome recorded for "Cc1cc(C)c(NC(=O)CCN2CCN(Cc3ccccc3)CC2)c(C)c1" in this assay.
Response: inactive

Query: Returns: the outcome recorded for "O=C(NCCCN1CCN(c2ccccc2F)CC1)Nc1ccccc1[N+](=O)[O-]" in this assay.
Response: active
